TARGET_OF_ASSAY: SphK2 (Homo sapiens (Human), UniProt Q9NRA0)
Sequence (Q9NRA0 whole entry): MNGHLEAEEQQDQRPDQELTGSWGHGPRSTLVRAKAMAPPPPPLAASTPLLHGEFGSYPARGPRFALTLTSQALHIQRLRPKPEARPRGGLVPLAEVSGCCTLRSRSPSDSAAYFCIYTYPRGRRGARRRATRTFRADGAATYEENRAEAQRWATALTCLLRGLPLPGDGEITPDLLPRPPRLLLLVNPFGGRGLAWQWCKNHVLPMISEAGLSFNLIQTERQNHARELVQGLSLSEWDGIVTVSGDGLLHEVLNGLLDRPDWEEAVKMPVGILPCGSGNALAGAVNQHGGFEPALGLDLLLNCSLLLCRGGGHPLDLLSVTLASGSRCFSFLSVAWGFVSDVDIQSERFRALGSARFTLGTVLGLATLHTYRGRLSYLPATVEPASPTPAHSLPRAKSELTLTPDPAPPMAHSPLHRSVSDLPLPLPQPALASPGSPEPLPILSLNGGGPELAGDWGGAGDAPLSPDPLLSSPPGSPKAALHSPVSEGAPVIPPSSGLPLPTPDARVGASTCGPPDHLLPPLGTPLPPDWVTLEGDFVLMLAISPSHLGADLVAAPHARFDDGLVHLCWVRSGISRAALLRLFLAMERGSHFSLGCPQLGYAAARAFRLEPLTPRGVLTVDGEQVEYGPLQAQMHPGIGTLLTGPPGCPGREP
METHOD_SUMMARY: ADP-Glo kinase assay, SphK2
Type: biochemical
SETUP_CONDITIONS: ADP-Glo assay, 50 μM ATP, recombinant human SphK2; hydrochloride
Method: The bioluminescence-based kinase assay such as ADP-Glo assay measures ADP formed from a kinase reaction with a luciferase. […] ADP-Glo (Promega, Madison, WI) kinase assay were used to evaluate the kinase activity of SphK. […] SB10 (tenfold signal to background ra-tio) of SphK was also determined to evaluate the enzyme perfor-mance and to optimize the kinase reaction condition in this system. […]

[
  {
    "MOLECULE": "Cl.N=C(N)N1CCC[C@H]1c1nc(-c2ccc(Cn3cc(-c4ccccn4)nn3)cc2)no1 [Compound 25c, hydrochloride]",
    "IC50 / µM": 0.9
  }
]

----------
TARGET_OF_ASSAY: SphK2 (Homo sapiens (Human), UniProt Q9NRA0)
METHOD_SUMMARY: ADP-Glo kinase assay, SphK2
Type: biochemical
SETUP_CONDITIONS: ADP-Glo assay, 50 μM ATP, recombinant human SphK2
pIC50: −log10 of the molar value. Counter-ions that a name gives are not always drawn.
Measured pIC50, listed per entry.
MEASURED_QUANTITY: pIC50

[
  {
    "COMPOUND": "N=C(N)C1(c2nc(-c3ccc(Cn4cc(C5CC5)nn4)cc3)no2)CC1 [Compound 29c, hydrochloride]",
    "READOUT_NUMBER": 6.14
  },
  {
    "COMPOUND": "Cl.N=C(N)C1(c2nc(-c3ccc(Cn4cc(-c5ccccc5)nn4)cc3)no2)CC1 [Compound 29a, hydrochloride]",
    "READOUT_NUMBER": 6.58
  },
  {
    "COMPOUND": "Cl.N=C(N)N1CCC[C@H]1c1nc(-c2ccc(Cn3cc(-c4ccc(C(F)(F)F)cc4)nn3)cc2)no1 [Compound 25b, hydrochloride]",
    "READOUT_NUMBER": 6.44
  },
  {
    "COMPOUND": "Cl.N=C(N)N1CCC[C@H]1Cc1nc(-c2ccc(Cn3cc(-c4ccccn4)nn3)cc2)no1 [Compound 21c, hydrochloride]",
    "READOUT_NUMBER": 6.34
  },
  {
    "COMPOUND": "Cl.N=C(N)N1CCC[C@H]1Cc1nc(-c2ccc(Cn3cc(-c4ccccc4)nn3)cc2)no1 [Compound 21a, hydrochloride]",
    "READOUT_NUMBER": 6.40
  },
  {
    "COMPOUND": "N=C(N)N1CCC[C@H]1c1nc(-c2ccc(Cn3cc(-c4ccc(F)cc4)nn3)cc2)no1 [Compound 25g, hydrochloride]",
    "READOUT_NUMBER": 6.41
  },
  {
    "COMPOUND": "N=C(N)N1CCC[C@H]1Cc1nc(-c2ccc(Nc3nc(-c4cccc(C(F)(F)F)c4)cs3)cc2)no1 [Compound 13, reference compound]",
    "READOUT_NUMBER": 6.55
  },
  {
    "COMPOUND": "COc1ccc(-c2cn(Cc3ccc(-c4noc([C@@H]5CCCN5C(=N)N)n4)cc3)nn2)cc1.Cl [Compound 25d, hydrochloride]",
    "READOUT_NUMBER": 6.58
  },
  {
    "COMPOUND": "Cn1nccc1-c1cn(Cc2ccc(-c3noc(C4(C(=N)N)CC4)n3)cc2)nn1 [Compound 29b, hydrochloride]",
    "READOUT_NUMBER": 6.57
  },
  {
    "COMPOUND": "Cl.N=C(N)N1CCC[C@H]1c1nc(-c2ccc(Cn3cc(C4CC4)nn3)cc2)no1 [Compound 25h, hydrochloride]",
    "READOUT_NUMBER": 6.61
  },
  {
    "COMPOUND": "CCCCc1cn(Cc2ccc(-c3noc([C@@H]4CCCN4C(=N)N)n3)cc2)nn1.Cl [Compound 25f, hydrochloride]",
    "READOUT_NUMBER": 6.60
  },
  {
    "COMPOUND": "N=C(N)N1CCC[C@H]1c1nc(-c2ccc(Cn3cc(-c4cccs4)nn3)cc2)no1 [Compound 25e, hydrochloride]",
    "READOUT_NUMBER": 6.16
  },
  {
    "COMPOUND": "Cl.Cn1cc(-c2cn(Cc3ccc(-c4noc(C[C@@H]5CCCN5C(=N)N)n4)cc3)nn2)cn1 [Compound 21g, hydrochloride]",
    "READOUT_NUMBER": 6.63
  },
  {
    "COMPOUND": "COc1ccc(-c2cn(Cc3ccc(-c4noc(C[C@@H]5CCCN5C(=N)N)n4)cc3)nn2)cc1.Cl [Compound 21e, hydrochloride]",
    "READOUT_NUMBER": 6.19
  }
]
